System: RARg:RXRa (NR concentration 270 nM, RXRa partner concentration 90 nM)
Test: PBM binding z-score (relative to random genomic background probes); higher = stronger binding; sequences stand for … in GC…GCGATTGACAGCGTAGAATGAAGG
I would appreciate it if you labelled entries 1 when PBM binding z-score is 3 or higher, otherwise 0.

# count of solved cases: 4
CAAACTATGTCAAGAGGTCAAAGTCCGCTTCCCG	1
CCTTACGGGTCACGAGGTTACAGCACGACGAGCG	1
TGATTGAGGTTAAAGATCAGGGAACGTGGCGTCG	0
CAAACTAGGTCAAGGTCAGAGTCGGTTTGTGCCA	1

Exam item: decide whether the reported PBM binding z-score for ATCTCTAGGTAACCAGTTCAGTGAAAGAGAGGAC is at least 3.
0

Consider next the sequence CCTCCGAGGACAACAGGAGGTCAGAGCTGCCAGA in the same way.
1

Consider next the sequence CAGCCTAGGTCAGAGCCAGTATAGGAGGAACGTT in the same way.
0

Consider next the sequence CATACAGGGTCAGCTTGGCCAGAGTAGGGACGGC in the same way.
1

Consider next the sequence TGAATGAGGTTAAAGATAAGGGAACGTGGCGTCG in the same way.
0

###

Test system: PPARg DBDmut IVT, anti-PPARg (DBD mutation: PPARg1 K132A/R137A, NR concentration 270 nM)
Test: PBM binding z-score (relative to random genomic background probes); higher = stronger binding; sequences stand for … in GC…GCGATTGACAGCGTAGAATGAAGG
QUANTITY: PBM binding z-score
Reply: number alone, nothing else.

Some entries whose results are on file:
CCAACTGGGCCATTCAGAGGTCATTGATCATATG	-0.774
CGTCCAATGTCATAGGAGGTCAGTGAAGACAGAT	0.254
TTAGACAGGTGAAGGTAACTCAGGTACGCAGTCG	0.841
CCTCGGAGGACAGAAGGTCAGAGGTGTCCGCTTT	-1.55
TCGAGTAGGTTAGTCGGGGCGTTCAGCCAACATA	-0.973

Field: next sequence
Kindly state the measured PBM binding z-score obtained for AGAATGAGGTTATACGTAGATTAGGGAAGAAAGT with PPARg DBDmut IVT, anti-PPARg (DBD mutation: PPARg1 K132A/R137A, NR concentration 270 nM).
1

###

System: PPARg:RXRa 270nM:90nM, anti-RXR (NR concentration 270 nM, RXRa partner concentration 90 nM)
Test: PBM binding z-score (relative to random genomic background probes); higher = stronger binding; sequences stand for … in GC…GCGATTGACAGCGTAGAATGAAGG
QUANTITY: PBM binding z-score
Reply: number alone, nothing else.

Some entries whose results are on file:
TATACAGAGTCAAAGGCCAGAGTACGAATGTCGA	2.98
ATATGTAGGTTACCTCCGGGTCATTCAGGCTATG	4.82
ACCCGGAGGACAAAGGTCAGAGCTACGCCAGTGA	6.32
CGTCCAAGGTCAAGGTCAGGGAAAGAGACTCGAA	7.28

If you can, please state the reported PBM binding z-score value of CCTGCTAGGTCATGGTCGGCTAATCTACAGTATG .
2.78

Consider next the sequence ACTAGTTGGTCAGCTCAGGTCACACACAATTCGG in the same way.
0.796

Consider next the sequence CCTAGGTGGTCAAGGTCACACACGCTATAGGTAC in the same way.
3.83

Consider next the sequence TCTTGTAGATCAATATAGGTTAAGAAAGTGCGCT in the same way.
2.09

###

Test system: PPARg:RXRa DBDmut IVT, anti-RXR (DBD mutation: RXRa K156A/R161A, NR concentration 270 nM, RXRa partner concentration 90 nM)
Experiment: PBM binding z-score (relative to random genomic background probes); higher = stronger binding; sequences stand for … in GC…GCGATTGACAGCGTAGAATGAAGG
QUANTITY: PBM binding z-score
Reply: number alone, nothing else.

TCATATAGATAAACAGGTGAAAGTCCGTAAGTTA	2.87

If you can, please state the reported PBM binding z-score value of CGAACTAGCTCATTGACAGGACAGTGAATAGTAA .
-0.0116

###

Test system: PPARg DBDmut IVT, anti-PPARg (DBD mutation: PPARg1 K132A/R137A, NR concentration 270 nM)
Experiment: PBM binding z-score (relative to random genomic background probes); higher = stronger binding; sequences stand for … in GC…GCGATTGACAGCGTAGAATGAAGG
I would appreciate it if you labelled entries yes (1) when PBM binding z-score is 0.7 or higher, otherwise no (0).

TCTTGCAGATCAGCAGGTTAAGAAAGCTGGCCAA	no (0)
AGATCGAGGGCACGCTGAGTTGATAGCAGAGTAG	no (0)
AGTCAAAGTTCTCTAGGTAACGTAAGATTCAGCT	no (0)
ACTAGCAGGCCAAGGATCACTCAAGATTAGTCCG	no (0)
ATTATTAGTTGAGACGAGGGCAACCGATAGGTTG	yes (1)
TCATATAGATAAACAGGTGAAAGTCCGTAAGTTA	yes (1)
AGAATGCGGTTATACGTAGATCAGGGAAGAAAGT	no (0)
CATTACGGGTCACTGACAGGTTATAGCATTTGGA	yes (1)

Exam item: decide whether the reported PBM binding z-score for TATACAGGGTCCAAGGCCAGAGTACGAATGTCGA is at least 0.7.
yes (1)

Consider next the sequence CCTAGCAGTCCAGGGTCACTCAAGCATTTCGCTT in the same way.
no (0)

Consider next the sequence CCTACTGGGCCATCAGGTCCTTGATATCAACGTT in the same way.
no (0)

Consider next the sequence GCGACTGGGGCATCAGCAGGATACCATAACTTAA in the same way.
no (0)

###

Tested on: PPARg DBDmut:RXRa IVT, anti-PPARg (DBD mutation: PPARg1 K132A/R137A, NR concentration 270 nM, RXRa partner concentration 90 nM)
Test: PBM binding z-score (relative to random genomic background probes); higher = stronger binding; sequences stand for … in GC…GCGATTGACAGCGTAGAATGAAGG
I would appreciate it if you labelled entries Yes when PBM binding z-score is 0.7 or higher, otherwise No.

# count of solved cases: 4
CAAACTAGGTCACCGGAAGGTCAGAGTCCGCATG	Yes
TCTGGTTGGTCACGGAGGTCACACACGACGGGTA	Yes
CCTACTTGGCCAAAGGTCATTGATTCCAATGCTC	No
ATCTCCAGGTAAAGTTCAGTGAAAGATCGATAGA	Yes

Now consider the entry below.
Exam item: decide whether the reported PBM binding z-score for TCATATAGGTAAATGCTCGGTGAAAGTCCGATCT is at least 0.7.
Yes

###

Tested on: PXR homodimer (NR concentration 270 nM)
Experiment: PBM binding z-score (relative to random genomic background probes); higher = stronger binding; sequences stand for … in GC…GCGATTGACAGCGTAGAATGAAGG
I would appreciate it if you labelled entries condition met when PBM binding z-score is 0.2 or higher, otherwise condition not met.

ACTATTAGTTGACTTAGGGCGACCGATACGACGC	condition not met
TGAATGAGGTTATAAGGTCAGGGAACGTTGCAAA	condition met

Exam item: decide whether the reported PBM binding z-score for AATACAGGGTCACTAGACCAGAGTAGGTACGAAT is at least 0.2.
condition met

Consider next the sequence CCTCAAAGTTCAACTAAGGTAACGTAAAGCACGC in the same way.
condition met

Consider next the sequence GCATATGGGTAATACAAGGTGAAAGTCCGATTGT in the same way.
condition not met

Consider next the sequence TCATATGGGTAAACAGGTGAAAGTCCGTAAGTTA in the same way.
condition not met

Consider next the sequence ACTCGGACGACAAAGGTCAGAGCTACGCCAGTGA in the same way.
condition not met

Consider next the sequence CCTGGGAGGACAACAGGAGGTCAGAGCTGCCAGA in the same way.
condition met

Consider next the sequence CCTCGGAGGACAAGAGGAGGTCAGAGCTGCCAGA in the same way.
condition not met

Consider next the sequence CGTCCAAGGTCATAGGTGGTCAGTGAAGACAGAT in the same way.
condition met

Consider next the sequence AATACAGGGTCATCGTAGGCCAAAGTACGCACAG in the same way.
condition met

Consider next the sequence TCATATAGGTCATACAGGTGAAAGTCGGCATCTA in the same way.
condition met

###

Tested on: PPARg:RXRa (NR concentration 180 nM, RXRa partner concentration 90 nM)
Assay: PBM binding z-score (relative to random genomic background probes); higher = stronger binding; sequences stand for … in GC…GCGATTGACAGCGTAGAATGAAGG
I would appreciate it if you labelled entries true (1) when PBM binding z-score is 0.8 or higher, otherwise false (0).

TCATATCGGTAATACAGGTGAAAGTCGGCATCTA	true (1)
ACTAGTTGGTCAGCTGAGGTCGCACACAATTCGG	false (0)
GCTGCTAGGTCAACTGATGGTCAGATAAAGCTCG	true (1)
CGTCCAAGATCAGAGAGGTCAGTGAATGCCGAGT	false (0)
AGAATGAGGGTATACGTAGATCAGGGAAGAAAGT	false (0)
TCATATAGGTAATACAGGTTAAAGTCGGCATCTA	true (1)

Exam item: decide whether the reported PBM binding z-score for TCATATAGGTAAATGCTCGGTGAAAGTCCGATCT is at least 0.8.
false (0)

Consider next the sequence CGTCAACGTTCAAGGTAACGTAACAGAAAGCAGC in the same way.
false (0)

Consider next the sequence ACTTACGGGTCAACGAGGTTCTAGCACGCGTATA in the same way.
true (1)

Consider next the sequence CCTAGGAGGACAGAAGGTCAGAGCTGTCCGCTTT in the same way.
false (0)

Consider next the sequence TTTATTAGTTGAAGGGCAACCGACGAGTCCGTTT in the same way.
false (0)

Consider next the sequence TAACCAAGGTGAAAGGTCGTTGATGCACGCCTTG in the same way.
true (1)

// data source = the supplement of paper PMC6555819
